Data origin, for the record: paper PMC7073110

assay: EGCG levels in plasma and brain after oral gavage of FontUp; assay type: in vivo, mice; conditions: male, TgBACDyrk1A, mouse, brain/plasma, 50 mg/Kg; TgDyrk1A mice; FontUp D2 oral gavage, two days; read-out: Kp (brain concentration/plasma concentration)
measured.quantity: Kp at 4 h
One number for each entry.

Query: Give recorded Kp at 4 h. O=C(O[C@@H]1Cc2c(O)cc(O)cc2O[C@@H]1c1cc(O)c(O)c(O)c1)c1cc(O)c(O)c(O)c1 [EGCG, epigallocatechin-3-gallate]
Reply: 3.6

====

experiment: EGCG levels in plasma and brain after oral gavage of FontUp; assay type: in vivo, mice; details: male, mouse, brain, 50 mg/Kg; WT mice; FontUp D2 oral gavage, two days; n = 5
measured.quantity: concentration at 4 h
Kindly format the answer as number then unit.

Query: Give recorded concentration at 4 h. O=C(O[C@@H]1Cc2c(O)cc(O)cc2O[C@@H]1c1cc(O)c(O)c(O)c1)c1cc(O)c(O)c(O)c1 [EGCG, epigallocatechin-3-gallate]
Reply: 25 nM

====

assay: EGCG levels in plasma and brain after oral gavage of FontUp; type: in vivo, mice; details: male, mouse, plasma; WT mice; FontUp intermediate dose D2 (50 mg/Kg) oral gavage, two days; last dose 4 h before sacrifice
measured.quantity: concentration at 4 h
Kindly format the answer as number then unit.

Query: Give recorded concentration at 4 h. O=C(O[C@@H]1Cc2c(O)cc(O)cc2O[C@@H]1c1cc(O)c(O)c(O)c1)c1cc(O)c(O)c(O)c1 [EGCG, epigallocatechin-3-gallate]
Reply: 63 nM

====

Assay: EGCG levels in plasma and brain after oral gavage of FontUp
Assay type: in vivo, mice
Conditions: male, mouse, plasma; WT mice; FontUp low dose D1 (25 mg/Kg) oral gavage, two days; last dose 4 h before sacrifice
Description: FontUp® was prepared daily as described above and strongly mixed at room temperature. Male mice received an oral gavage of three different doses (25, 50 and 75 mg/Kg), in the morning and in the evening for two or eight days. […] The catechin contents was analyzed as previously reported. […] The eluent was monitored using the Coulochem-III electrochemical detector (5011 analytical cell) with potential settings at 600 mV (E1) and 700 mV (E2). Quantification was carried out using the external standard method. […]
measured.quantity: concentration at 4 h (nM)
One number for each entry, in nM.

Query: Give recorded concentration at 4 h. O=C(O[C@@H]1Cc2c(O)cc(O)cc2O[C@@H]1c1cc(O)c(O)c(O)c1)c1cc(O)c(O)c(O)c1 [EGCG, epigallocatechin-3-gallate]
Reply: 28
